These measurements were taken from patent US20160002318A1.

Target: HA of influenza B virus B/Malaysia/2506/2004 (live virus) (influenza B virus B/Malaysia/2506/2004)
Assay: cell-based or functional assay
Items are presented alongside their recorded HI titers.

{"binder": "CR8059 (antibody, V domains shown) VH: EVQLVQSGAEVKKPGASVRVSCRASGYIFTESGITWVRQAPGQGLEWMGWISGYSGDTKYAQKLQGRVTMTKDTSTTTAYMELRSLRYDDTAVYYCARDVQYSGSYLGAYYFDYWSPGTLVTVSS VL: SYVLTQPPSASGTPGQRVTISCSGSSSNIGTNYVYWYQQFPGTAPKLLIYRSYQRPSGVPDRFSGSKSGSSASLAISGLQSEDEADYYCATWDDSLNGWVFGGGTKLTVL", "HI titers": "> 50 µg/mL"}
{"binder": "CR8033 (antibody, V domains shown) VH: EVQLVETGGGLVQPGRSLRLSCAASGFSFDEYTMHWVRQAPGKGLEWVAGINWKGNFMGYADSVQGRFTISRDNGKNSLYLQMNSLRAEDTALYYCAKDRLESSAMDILEGGTFDIWGQGTMVT VL: EIVLTQSPGTLSLSPGERATLSCRASQSVSSSYLAWYQQKPGQAPRLLIYGASTRATGIPARFSGSGSGTDFTLTISRLEPEDLAVYYCQQYGSSPWTFGQGTKVEIK", "HI titers": "> 50 µg/mL"}
{"binder": "CR8071 (antibody, V domains shown) VH: QVQLVQSGAEVKKPGASVRVSCRASGYIFTESGITWVRQAPGQGLEWMGWISGYSGDTKYAQKLQGRVTMTKDTSTTTAYMELRSLRYDDTAVYYCARDVQYSGSYLGAYYFDYWSPGTLVTVSS VL: QSVLTQPPSASGTPGQRVTISCSGSSSNIGTNYVYWYQQFPGTAPKLLIYRSYQRPSGVPDRFSGSKSGSSASLAISGLQSEDEADYYCATWDDSLDGWVFGGGTKLTVLR", "HI titers": "> 50 µg/mL"}
{"binder": "CR10023 (antibody, V domains shown) VH: EVQLVETGGGLVQPGRSLRLSCAASGFTFDDYAMHWVRQAPGKGLEWVSGINWVSTTMGYADSVKGRFTISRDNAKNSLYLQMNSLRAEDTALYYCAKDRLESAAIDILEGGTFDIRGQGTMVTVSS VL: QSALTQPPSASGSPGQSVTISCTGTSSDVGGYNYVSWYQQHPGKAPKLMIYDVSKRPSGVPDRFSGSKSGNTASLTISGLQAEDEAEYYCSSYASGSTYVFGTGTKVTVL", "HI titers": "> 50 µg/mL"}
